# assay: qHTS assay to identify small molecule antagonists of the estrogen receptor alpha (ER-alpha) signaling pathway - cell viability counter screen (AID 743074);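 also: HEK293 cells carrying ER-alpha-UAS-bla reporter stimulated with 17beta-estradiol; nearly all actives have a fitted effect of over 45% in size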
# cond: ERalpha-bla HEK293 viability, CellTiter-Glo luminescence, 18 h; series mostly up to 69.4 µM
Inconclusive results are not listed. Active and inactive are the calls of the source. Calls follow the shape of the full dose curve.
propertyLabel: Potency

Solved cases (8 shown):
>  <compound>
OC[C@@H](O)[C@H]1O[C@@H]2O[C@@H](C(Cl)(Cl)Cl)O[C@@H]2[C@H]1O

>  <Potency>
inactive

$$$$
>  <compound>
[S]=[Sb](=[S])[S][Sb](=[S])=[S]

>  <Potency>
inactive

$$$$
>  <compound>
CCOC(=O)C1(c2ccccc2)CCCN(C)CC1 (stereo not given)

>  <Potency>
inactive

$$$$
>  <compound>
C=CCN1CC[C@]23c4c5ccc(O)c4O[C@H]2[C@@H](O)C=C[C@H]3[C@H]1C5

>  <Potency>
inactive

$$$$
>  <compound>
[2H]C([2H])([2H])[C@H](N)Cc1ccccc1

>  <Potency>
inactive

$$$$
>  <compound>
CCC1(CC)C(=O)NC(=O)N(C)C1=O

>  <Potency>
inactive

$$$$
>  <compound>
Cc1cc(C)cc(C(=O)OC2C[C@H]3CC[C@@H](C2)N3C)c1 (stereo not given in full)

>  <Potency>
inactive

$$$$
>  <compound>
C[C@]12CCC(=O)C[C@@H]1CC[C@@H]1[C@@H]2CC[C@@]2(C)[C@H]1CC[C@]2(C)O

>  <Potency>
inactive

$$$$

Provide one value: measured Potency of C/C=C(\CC)C(=O)NC(N)=O
inactive

Where do the numbers come from? From PubChem BioAssay (Tox21).
